Value source: patent US11590158B2

# Run Description: Solid state stability
# Test Settings: 40° C. 75% RH for 1 week
Structures can show the parent of a compound that is named as a salt.
Endpoint Name: physical form

{"columns": ["Compound", "Endpoint Name", "Result"],
 "data": [
  ["C[N+](C)(C)CCOC(=O)CCCCC1CCSS1 (stereo not shown) [LACE-OBs, lipoic acid choline ester besylate]", "physical form", "become sticky"],
  ["C[N+](C)(C)CCOC(=O)CCCCC1CCSS1 (stereo not shown) [LACE-OTs, lipoic acid choline ester tosylate]", "physical form", "become sticky"]
]}

* * *

# Run Description: Solid state stability
# Test Settings: 40° C. for 1 week
Structures can show the parent of a compound that is named as a salt.
Endpoint Name: solid state stability / physical form

{"columns": ["Compound", "Endpoint Name", "Result"],
 "data": [
  ["C[N+](C)(C)CCOC(=O)CCCCC1CCSS1.[I-] (stereo not shown) [LACE-I, lipoic acid choline ester iodide]", "solid state stability / physical form", "stable"],
  ["C[N+](C)(C)CCOC(=O)CCCCC1CCSS1 (stereo not shown) [LACE-OTs, lipoic acid choline ester tosylate]", "solid state stability / physical form", "stable"],
  ["C[N+](C)(C)CCOC(=O)CCCCC1CCSS1 (stereo not shown) [LACE-OBs, lipoic acid choline ester besylate]", "solid state stability / physical form", "stable"]
]}
